Below is a list of entries, each paired with its recorded inhibition at 10 µM value.
target: human GABAA receptor α1, β2 and γ2 subunits (Homo sapiens, UniProt P14867+P18507+P47870)
Construct: expressed in transfected cells
Sequence (P14867 28-456): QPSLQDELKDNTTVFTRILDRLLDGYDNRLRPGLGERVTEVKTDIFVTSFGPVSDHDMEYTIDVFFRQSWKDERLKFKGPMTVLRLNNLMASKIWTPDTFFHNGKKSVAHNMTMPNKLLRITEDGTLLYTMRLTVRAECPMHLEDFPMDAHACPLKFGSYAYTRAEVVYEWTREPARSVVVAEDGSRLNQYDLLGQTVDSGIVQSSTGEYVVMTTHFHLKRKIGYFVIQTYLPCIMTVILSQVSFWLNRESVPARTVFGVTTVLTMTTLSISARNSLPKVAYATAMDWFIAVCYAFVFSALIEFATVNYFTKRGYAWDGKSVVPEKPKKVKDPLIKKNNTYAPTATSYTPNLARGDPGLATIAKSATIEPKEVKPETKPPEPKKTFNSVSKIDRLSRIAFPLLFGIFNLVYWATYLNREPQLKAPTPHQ
Sequence (P47870 25-512 limits assumed): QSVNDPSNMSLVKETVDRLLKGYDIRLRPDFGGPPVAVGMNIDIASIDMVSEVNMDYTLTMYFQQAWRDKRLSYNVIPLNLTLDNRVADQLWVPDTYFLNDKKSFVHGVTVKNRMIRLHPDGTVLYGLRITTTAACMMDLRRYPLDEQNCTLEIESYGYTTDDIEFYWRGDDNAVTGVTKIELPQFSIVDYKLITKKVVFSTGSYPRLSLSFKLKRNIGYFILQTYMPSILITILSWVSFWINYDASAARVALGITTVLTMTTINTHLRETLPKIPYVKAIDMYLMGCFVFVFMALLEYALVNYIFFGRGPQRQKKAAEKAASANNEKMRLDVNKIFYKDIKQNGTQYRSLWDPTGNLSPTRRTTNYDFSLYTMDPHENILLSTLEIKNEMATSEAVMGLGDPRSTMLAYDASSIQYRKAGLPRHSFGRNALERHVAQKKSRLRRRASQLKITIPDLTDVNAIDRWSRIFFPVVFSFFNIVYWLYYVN
Sequence (P18507 40-475): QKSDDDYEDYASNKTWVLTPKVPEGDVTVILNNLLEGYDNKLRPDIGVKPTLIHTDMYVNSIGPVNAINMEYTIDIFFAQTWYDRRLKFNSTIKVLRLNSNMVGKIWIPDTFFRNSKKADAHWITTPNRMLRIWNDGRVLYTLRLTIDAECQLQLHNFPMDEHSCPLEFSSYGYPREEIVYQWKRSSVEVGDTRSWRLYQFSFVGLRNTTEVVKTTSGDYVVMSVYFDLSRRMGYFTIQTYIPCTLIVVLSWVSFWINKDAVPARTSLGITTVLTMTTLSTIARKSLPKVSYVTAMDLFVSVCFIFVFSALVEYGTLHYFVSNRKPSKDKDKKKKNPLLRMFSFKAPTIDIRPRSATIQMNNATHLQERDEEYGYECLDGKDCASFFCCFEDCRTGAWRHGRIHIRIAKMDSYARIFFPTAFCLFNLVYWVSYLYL
measurement_notes: Automated patch clamp studies on the GABAA receptor (IonFlux HT)
Type: cell-based
study_conditions: 10 μM compound; 15 μM GABA as agonist; CHO-K1 cells expressing human GABAA α1β2γ2
Please state the number and follow it with the unit.

- C[C@H]1c2cccc(-c3cn[nH]c3)c2C[C@H](CO)N1C(=O)Cc1c(Cl)ccc2c1c(Cl)nn2C: 0%
- C[C@H]1c2cccc(-c3cnn(C)c3)c2C[C@H](CO)N1C(=O)Cc1c(Cl)ccc2c1c(Cl)nn2C: 2.7%
- C[C@H]1c2cccc(-c3cnn(C)c3)c2C[C@H](CO)N1C(=O)Cc1c(Cl)ccc2[nH]nc(Cl)c12: 10.1%

In the following, a different compound is considered.
Given the compound C[C@H]1c2cccc(-c3cn[nH]c3)c2C[C@H](CO)N1C(=O)Cc1c(Cl)ccc2[nH]nc(Cl)c12 , what is its reported inhibition at 10 µM?
7.8%
